test: Oral bioavailability in cynomolgus monkey at 1 mg/kg, po; format: ADME, organism-based, Macaca fascicularis; conditions: in vivo

{"columns": ["CHEM SMILES", "READOUT UNIT", "bioavailability"],
 "data": [
  ["CCCC[C@H]1CN(CC2CCOCC2)C(=O)OC12CCN(C1(C)CCN(C(=O)c3c(C)ncnc3C)CC1)CC2", "%", 42]
]}

* * *

experiment: Half life in cynomolgus monkey at 1 mg/kg, iv; type: ADME, organism-based, Macaca fascicularis; set-up: dose 1 mg/kg, route intravenous; conditions: in vivo

{"columns": ["CHEM SMILES", "READOUT UNIT", "half-life"],
 "data": [
  ["CCCC[C@H]1CN(CC2CCOCC2)C(=O)OC12CCN(C1(C)CCN(C(=O)c3c(C)ncnc3C)CC1)CC2", "h", 3.5]
]}

* * *

biological target: hERG (KCNH2) (Homo sapiens); assay: Inhibition of human ERG; details: human
Sequence (Q12809 whole entry): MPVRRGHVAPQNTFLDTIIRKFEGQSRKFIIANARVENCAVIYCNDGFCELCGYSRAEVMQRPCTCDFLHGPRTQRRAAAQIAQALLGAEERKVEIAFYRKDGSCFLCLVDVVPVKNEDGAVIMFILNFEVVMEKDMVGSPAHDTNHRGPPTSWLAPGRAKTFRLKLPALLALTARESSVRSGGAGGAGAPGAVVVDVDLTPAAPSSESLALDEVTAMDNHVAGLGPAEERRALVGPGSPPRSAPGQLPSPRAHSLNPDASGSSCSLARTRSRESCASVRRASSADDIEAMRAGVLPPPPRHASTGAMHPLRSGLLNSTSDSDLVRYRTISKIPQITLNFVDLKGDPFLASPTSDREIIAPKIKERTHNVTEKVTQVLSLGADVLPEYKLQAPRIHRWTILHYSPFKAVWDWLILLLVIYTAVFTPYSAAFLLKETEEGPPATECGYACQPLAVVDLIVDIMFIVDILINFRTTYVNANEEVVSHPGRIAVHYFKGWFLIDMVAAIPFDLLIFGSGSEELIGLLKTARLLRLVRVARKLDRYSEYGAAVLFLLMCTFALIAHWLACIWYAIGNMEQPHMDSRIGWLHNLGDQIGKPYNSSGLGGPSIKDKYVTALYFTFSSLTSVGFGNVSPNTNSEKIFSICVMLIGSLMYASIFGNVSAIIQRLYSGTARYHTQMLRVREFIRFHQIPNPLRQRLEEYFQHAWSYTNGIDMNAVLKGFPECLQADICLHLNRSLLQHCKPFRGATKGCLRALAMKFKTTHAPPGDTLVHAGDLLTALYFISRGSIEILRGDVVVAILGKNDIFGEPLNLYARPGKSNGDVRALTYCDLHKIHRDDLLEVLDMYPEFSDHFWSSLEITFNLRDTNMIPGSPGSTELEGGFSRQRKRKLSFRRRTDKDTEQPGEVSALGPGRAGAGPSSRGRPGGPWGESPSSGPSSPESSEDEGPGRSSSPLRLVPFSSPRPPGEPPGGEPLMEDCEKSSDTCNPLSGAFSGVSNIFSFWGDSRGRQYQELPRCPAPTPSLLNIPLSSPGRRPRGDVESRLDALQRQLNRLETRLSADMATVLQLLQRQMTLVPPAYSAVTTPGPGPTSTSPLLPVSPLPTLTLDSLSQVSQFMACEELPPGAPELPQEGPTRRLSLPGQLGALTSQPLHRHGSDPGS
EXPERIMENTAL READOUT: IC20 (µM)

{"columns": ["CHEM SMILES", "EXPERIMENTAL READOUT", "EXPERIMENTAL RESULT"],
 "data": [
  ["CCCC[C@H]1CN(CC2CCOCC2)C(=O)OC12CCN(C1(C)CCN(C(=O)c3c(C)ncnc3C)CC1)CC2", "IC20", 2.9]
]}

* * *

system: Liver microsomes; assay: Intrinsic clearance in rat liver microsomes assessed per mg of protein; format: ADME, Microsome; settings: microsomes
EXPERIMENTAL READOUT: clearance (µL/min/mg)

{"columns": ["COMPOUND", "EXPERIMENTAL RESULT"],
 "data": [
  ["CCCCC1CN(CC2CCCCC2)C(=O)OC12CCN(C1CCN(C(=O)c3c(C)ncnc3C)CC1)CC2 (stereo unspecified)", 80]
]}

* * *

assay: Oral bioavailability in rat at 10 mg/kg; assay type: ADME, organism-based; conditions: in vivo

{"columns": ["MOLECULE", "bioavailability [%]"],
 "data": [
  ["CCCCC1CN(CC2CCCCC2)C(=O)OC12CCN(C1CCN(C(=O)c3c(C)ncnc3C)CC1)CC2 (stereo unspecified)", 43]
]}

* * *

experiment: Fraction unbound in dog plasma; assay type: ADME, cell-free, Canis lupus familiaris

{"columns": ["CHEM SMILES", "fraction unbound"],
 "data": [
  ["CCCC[C@H]1CN(CC2CCOCC2)C(=O)OC12CCN(C1(C)CCN(C(=O)c3c(C)ncnc3C)CC1)CC2", 0.13]
]}

* * *

molecular target: C-C chemokine receptor type 5 (Homo sapiens); assay: Displacement of [125I]RANTES from human CCR5 receptor co-transfected with Galphai6 in CHO cells; assay type: cell-based
Sequence (P51681 whole entry): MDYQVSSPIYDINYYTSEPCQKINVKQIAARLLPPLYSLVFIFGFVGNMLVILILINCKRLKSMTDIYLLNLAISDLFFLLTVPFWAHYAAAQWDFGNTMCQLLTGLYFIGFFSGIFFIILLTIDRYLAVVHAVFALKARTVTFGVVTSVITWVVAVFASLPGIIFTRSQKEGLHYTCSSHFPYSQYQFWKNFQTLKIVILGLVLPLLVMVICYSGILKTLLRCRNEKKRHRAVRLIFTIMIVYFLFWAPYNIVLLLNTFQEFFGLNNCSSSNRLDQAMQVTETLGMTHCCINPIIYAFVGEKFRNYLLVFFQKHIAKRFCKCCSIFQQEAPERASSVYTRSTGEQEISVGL
Parameter class (string): assigned from measured IC50. Ranges: LOW: < 20 nM; MEDIUM: ≥ 20 nM and < 80 nM; HIGH: ≥ 80 nM

{"columns": ["COMPOUND", "QUALITATIVE LABEL"],
 "data": [
  ["CCCC[C@H]1CN(CC2CCOCC2)C(=O)OC12CCN(C1(C)CCN(C(=O)c3c(C)cc(=O)oc3C)CC1)CC2", "LOW"],
  ["CCCC[C@H]1CN(CC2CCOCC2)C(=O)OC12CCN(C1(C)CCN(C(=O)c3c(C)ncnc3C)CC1)CC2", "MEDIUM"],
  ["CCCC[C@H]1CN(CC2CCCCO2)C(=O)OC12CCN(C1(C)CCN(C(=O)c3c(C)ccnc3C)CC1)CC2 (some centres undefined)", "LOW"],
  ["CCCCC1N(CC2CCCC2)C(=O)OC12CCN(C1CCN(C(=O)c3c(C)cccc3C)CC1)CC2 (centres undefined)", "LOW"],
  ["CCCC[C@H]1CN(CC2CCOCC2)C(=O)OC12CCN(C1(C)CCN(C(=O)c3c(C)ccnc3C)CC1)CC2", "MEDIUM"],
  ["CCCCC1N(CC2CCOCC2)C(=O)OC12CCN(C1(C)CCN(C(=O)c3c(C)ncnc3C)CC1)CC2 (centres undefined)", "MEDIUM"],
  ["CCCCC1N(CC2CCCCC2)C(=O)OC12CCN(C1(C)CCN(C(=O)c3c(C)cccc3C)CC1)CC2 (centres undefined)", "LOW"],
  ["CCCC[C@@H]1CN(CC2CCOCC2)C(=O)OC12CCN(C1(C)CCN(C(=O)c3c(C)ncnc3C)CC1)CC2", "HIGH"],
  ["CCCCC1N(CC2CCCCC2)C(=O)OC12CCN(C1(C)CCN(C(=O)c3c(C)ncnc3C)CC1)CC2 (centres undefined)", "LOW"],
  ["CCCCC1N(CC2CCCCC2)C(=O)OC12CCN(C1CCN(C(=O)c3ccccc3C)CC1)CC2 (centres undefined)", "HIGH"],
  ["CCCCC1N(CC2CCCCC2)C(=O)OC12CCN(C1CCN(C(=O)c3c(C)cccc3C)CC1)CC2 (centres undefined)", "MEDIUM"],
  ["CCCCC1CN(CC2CCOCC2)C(=O)OC12CCN(C1CCN(C(=O)c3c(C)cccc3C)CC1)CC2 (centres undefined)", "HIGH"],
  ["CCCCC1CN(CC2CCCCC2)C(=O)OC12CCN(C1CCN(C(=O)c3c(C)cccc3C)CC1)CC2 (centres undefined)", "MEDIUM"],
  ["CCCC[C@H]1CN(CC2CCC(F)(F)CC2)C(=O)OC12CCN(C1(C)CCN(C(=O)c3c(C)ncnc3C)CC1)CC2", "MEDIUM"],
  ["CCCCC1CN(CC2CCOCC2)C(=O)OC12CCN(C1(C)CCN(C(=O)c3c(C)ncnc3C)CC1)CC2 (centres undefined)", "MEDIUM"],
  ["CCCCC1N(CC2CCOCC2)C(=O)OC12CCN(C1CCN(C(=O)c3c(C)cccc3C)CC1)CC2 (centres undefined)", "MEDIUM"],
  ["CCCCC1N(Cc2ccccc2)C(=O)OC12CCN(C1CCN(C(=O)c3c(C)cccc3C)CC1)CC2 (centres undefined)", "HIGH"],
  ["CCCC1N(CC2CCCCC2)C(=O)OC12CCN(C1CCN(C(=O)c3c(C)cccc3C)CC1)CC2 (centres undefined)", "HIGH"],
  ["CCCCC1CN(CC2CCOCC2)C(=O)OC12CCN(C1(C)CCN(C(=O)c3c(C)cc(C#N)nc3C)CC1)CC2 (racemic)", "MEDIUM"],
  ["CCCC[C@H]1CN(CC2CCOCC2)C(=O)OC12CCN(C1(C)CCN(C(=O)c3c(C)nc(C(F)(F)F)nc3C)CC1)CC2", "HIGH"],
  ["CCCCC1CN(CC2CCCCC2)C(=O)OC12CCN(C1CCN(C(=O)c3c(C)ncnc3C)CC1)CC2 (centres undefined)", "MEDIUM"],
  ["CCCCC1CN(CC2CCOCC2)C(=O)OC12CCN(C1CCN(C(=O)c3c(C)ncnc3C)CC1)CC2 (centres undefined)", "MEDIUM"],
  ["CCCC[C@H]1CN(C)C(=O)OC12CCN(C1(C)CCN(C(=O)c3c(C)cc(C#N)nc3C)CC1)CC2", "MEDIUM"]
]}

The reported measurements were obtained from ChEMBL document CHEMBL1154224.
